- systemTested: T1, Human PDGF-BB (human, UniProt P01127 82-190)
- T1 construct: Dimer of two B chains; also called hPDGF-BB; huPDGF-BB
- T1 sequence (P01127 82-190 limits assumed): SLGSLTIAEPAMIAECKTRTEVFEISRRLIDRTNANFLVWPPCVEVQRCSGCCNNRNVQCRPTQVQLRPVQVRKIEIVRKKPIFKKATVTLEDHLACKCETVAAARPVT
- experimentalDetails: competition ELISA: antibody pre-incubated with hPDGF-BB-biotin, binding to coated hPDGF-Rβ-Fc
measurementKind: pIC50
Scale note: pIC50 = -log10(concentration in M).

binder	pIC50
CL-33855-IgG (antibody, V domains shown) VH: EVTLRESGPALVKPTQTLTLTCTFSGFSLSTYGMGVGWIRQPPGKALEWLANIWWDDDKYYNPSLKNRLTISKDTSKNQVVLTMTNMDPVDTATYYCARIETFGPKYSFDYWGQGTMVTVSS VL: EIVLTQSPGTLSLSPGERATLSCRASSGSIWYSFVSWYQQKPGQAPRLLIYADDQRASGIPDRFSGSGSGTDFTLTISRLEPEDFAVYYCQSYGINIDVVFGGGTKVEIK	9.79

Q: # return recorded pIC50 for entry CL-33682-IgG (antibody, V domains shown) VH: EVTLRESGPALVKPTQTLTLTCTFSGFSLSTYGMGVGWIRQPPGKALEWLANIWWDDDKYYNPSLKNRLTISKDTSKNQVVLTMTNMDPVDTATYYCARIESSWTSYSFDYWGQGTMVTVSS VL: EIVLTQSPGTLSLSPGERATLSCERSSGSNYDTYVSWYQQKPGQAPRLLIYADDLRASGIPDRFSGSGSGTDFTLTISRLEPEDFAVYYCQSYGINIDVVFGGGTKVEIK
Result: 10.16

Q: Quick one: give measured pIC50 for CL-33759-IgG (antibody, V domains shown) VH: EVTLRESGPALVKPTQTLTLTCTFSGFSLSTYGMGVGWIRQPPGKALEWLANIWWDDDKYYNPSLKNRLTISKDTSKNQVVLTMTNMDPVDTATYYCARIESVWTRYDFDYWGQGTMVTVSS VL: EIVLTQSPGTLSLSPGERATLSCERSSGDIWQTYVSWYQQKPGQAPRLVIYGDDQRASGIPDRFSGSGSGTDFTLTISRLEPEDFAVYYCQSYDIDIDITFGGGTKVEIK
Result: 8.90

Q: Fill in pIC50 for record CL-33767-IgG (antibody, V domains shown) VH: EVTLRESGPALVKPTQTLTLTCTFSGFSLSTYGMGVGWIRQPPGKALEWLANIWWDDDKYYNPSLKNRLTISKDTSKNQVVLTMTNMDPVDTATYYCARIESIGPKYSFDYWGQGTMVTVSS VL: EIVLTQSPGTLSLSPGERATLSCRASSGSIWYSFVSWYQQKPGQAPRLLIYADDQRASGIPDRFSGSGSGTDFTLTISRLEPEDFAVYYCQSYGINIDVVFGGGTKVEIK
Result: 9.94

Q: Return pIC50 (reported value) for this binder: CL-33812-IgG (antibody, V domains shown) VH: EVTLRESGPALVKPTQTLTLTCTFSGFSLSTYGMGVGWIRQPPGKALEWLANIWWDDDKYYNPSLKNRLTISKDTSKNQVVLTMTNMDPVDTATYYCARIESNPWKYSFDYWGQGTMVTVSS VL: EIVLTQSPGTLSLSPGERATLSCERSSGDIWQSYVSWYQQKPGQAPRLVIYSDDQRASGIPDRFSGSGSGTDFTLTISRLEPEDFAVYYCQSYGINIDVVFGGGTKVEIK
Result: 10.37
